Hey, just so you know, these numbers are from ChEMBL document CHEMBL4177643.

# targetOrSystem: Cyclin-dependent kinase 2/cyclin E1 (Homo sapiens)
# methodSummary: Inhibition of CDK2/cyclin E (unknown origin) expressed in baculovirus infected insect Sf9 cells using histone H1 as substrate in presence of [gamma-33P]ATP
pIC50: −log10 of the molar value.
observable: pIC50

N[C@H]1CC[C@H](Nc2nc(Nc3ccc(Cl)cc3)c3ncn(C4CCCCC4)c3n2)CC1 ... 6.02
CC(C)CCn1cnc2c(Nc3ccccc3)nc(N[C@H]3CC[C@H](N)CC3)nc21 ... 6.20
N[C@H]1CC[C@H](Nc2nc(Nc3cccc(Cl)c3)c3ncn(Cc4ccccc4)c3n2)CC1 ... 5.55

[I] N[C@H]1CC[C@H](Nc2nc(Nc3ccc(O)cc3)c3ncn(C4CCCCC4)c3n2)CC1
[II] CCCCn1cnc2c(Nc3cccc(Cl)c3)nc(N[C@H]3CC[C@H](N)CC3)nc21
IN: // which entry reports the smaller pIC50, I or II ? Answer format: the label of the selected item.
OUT: I
(I: 5.84, II: 6.88)

###

# targetOrSystem: Platelet-derived growth factor receptor alpha (Homo sapiens)
# Sequence (P16234 whole entry, the tested form may be a part): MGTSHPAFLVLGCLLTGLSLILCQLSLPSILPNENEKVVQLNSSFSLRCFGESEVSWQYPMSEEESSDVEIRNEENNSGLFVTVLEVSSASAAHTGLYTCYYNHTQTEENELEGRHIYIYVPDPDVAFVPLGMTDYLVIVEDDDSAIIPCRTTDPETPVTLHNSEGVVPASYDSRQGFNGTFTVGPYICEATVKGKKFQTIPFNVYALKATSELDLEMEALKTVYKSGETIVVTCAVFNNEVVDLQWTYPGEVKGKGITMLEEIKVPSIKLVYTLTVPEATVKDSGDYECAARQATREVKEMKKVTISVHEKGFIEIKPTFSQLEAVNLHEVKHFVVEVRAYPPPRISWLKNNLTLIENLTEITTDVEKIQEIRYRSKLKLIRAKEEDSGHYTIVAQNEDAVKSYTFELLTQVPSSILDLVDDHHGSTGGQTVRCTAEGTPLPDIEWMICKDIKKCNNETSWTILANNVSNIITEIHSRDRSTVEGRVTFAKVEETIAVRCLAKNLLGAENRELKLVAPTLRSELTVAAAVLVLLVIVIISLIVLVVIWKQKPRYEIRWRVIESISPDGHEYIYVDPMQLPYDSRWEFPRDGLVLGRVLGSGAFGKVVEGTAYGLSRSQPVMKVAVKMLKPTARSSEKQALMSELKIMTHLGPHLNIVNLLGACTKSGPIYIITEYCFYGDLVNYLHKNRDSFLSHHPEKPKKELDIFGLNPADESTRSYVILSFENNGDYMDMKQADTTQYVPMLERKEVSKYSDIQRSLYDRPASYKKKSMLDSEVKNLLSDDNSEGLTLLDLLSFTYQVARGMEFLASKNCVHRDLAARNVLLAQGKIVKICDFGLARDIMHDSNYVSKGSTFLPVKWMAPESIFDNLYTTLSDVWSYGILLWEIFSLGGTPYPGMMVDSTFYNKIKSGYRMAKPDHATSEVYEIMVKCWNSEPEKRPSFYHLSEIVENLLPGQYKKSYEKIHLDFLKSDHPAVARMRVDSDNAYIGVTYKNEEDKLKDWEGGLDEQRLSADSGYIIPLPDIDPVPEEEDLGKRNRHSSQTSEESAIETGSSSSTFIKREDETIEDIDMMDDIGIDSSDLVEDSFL
# methodSummary: Inhibition of recombinant human N-terminal GST-His6 tagged PDGFRalpha (Q551 to L1089 residues) expressed in Sf9 insect cells using poly(Ala,Glu,Lys,Tyr)6:2:5:1 hydrobromide as substrate in presence of [gamma-33P]ATP
observable: IC50 (nM)

Known results for compounds:
CCCCn1cnc2c(Nc3cc(OC)cc(OC)c3)nc(N[C@H]3CC[C@H](N)CC3)nc21 ... 1500
N[C@H]1CC[C@H](Nc2nc(Nc3ccc(Cl)cc3)c3ncn(C4CCCCC4)c3n2)CC1 ... 1090
CCCCCCn1cnc2c(Nc3ccc(Cl)cc3)nc(N[C@H]3CC[C@H](N)CC3)nc21 ... 156
COc1ccc(Nc2nc(N[C@H]3CC[C@H](N)CC3)nc3c2ncn3CCC(C)C)c(OC)c1 ... 3200

[P] CC(C)CCn1cnc2c(Nc3cccc(O)c3)nc(N[C@H]3CC[C@H](N)CC3)nc21
[Q] CC(C)=CCn1cnc2c(Nc3cccc(Cl)c3)nc(N[C@H]3CC[C@H](N)CC3)nc21
IN: // which entry reports the smaller IC50, P or Q ? Answer format: the label of the selected item.
OUT: P
(P: 66 nM, Q: 187 nM)

###

# System: HCC827
# methodSummary: Cytotoxicity against human HCC827 cells assessed as growth inhibition after 72 hrs by calcein-AM dye based fluorescence assay
# Format: functional
# reportedConditions: HCC827, 72 h
observable: GI50 (µM)
Unit µM implied. Number only.

CCCCn1cnc2c(Nc3cc(OC)cc(OC)c3)nc(N[C@H]3CC[C@H](N)CC3)nc21 ... 20.1

IN: // returns reported GI50 for input `CCCCCCn1cnc2c(Nc3cc(OC)cc(OC)c3)nc(N[C@H]3CC[C@H](N)CC3)nc21`
OUT: 9.1

IN: // returns reported GI50 for input `CCCCCCn1cnc2c(Nc3ccc(O)cc3)nc(N[C@H]3CC[C@H](N)CC3)nc21`
OUT: 24.7

###

# System: BT-474
# methodSummary: Cytotoxicity against human BT474 cells assessed as growth inhibition after 72 hrs by calcein-AM dye based fluorescence assay
# Type: functional
# reportedConditions: BT-474, 72 h
observable: GI50 (µM)
Unit µM implied. Number only.

Known results for compounds:
CS(=O)(=O)CCNCc1ccc(-c2ccc3ncnc(Nc4ccc(OCc5cccc(F)c5)c(Cl)c4)c3c2)o1 ... 0.2
N[C@H]1CC[C@H](Nc2nc(Nc3cccc(Cl)c3)c3ncn(Cc4ccccc4)c3n2)CC1 ... 10.2

IN: // returns reported GI50 for input `CCCCn1cnc2c(Nc3cc(OC)cc(OC)c3)nc(N[C@H]3CC[C@H](N)CC3)nc21`
OUT: 15.6
